Source listed as patent US7763615B2.

System: K562
Assay: cells
Format: cell-based
Details: K562
# TGI per record follows
measurement_type: TGI

molecule | value
COc1c(C)cc2c(c1O)[C@@H]1C3[C@@H]4SC[C@]5(NC(C)Cc6c5[nH]c5ccccc65)C(=O)COC[C@@H](c5c6c(c(C)c(OC(C)=O)c54)OCO6)N3[C@@H](O)[C@H](C2)N1C (stereo partly shown) [Compound 43] | 4.88E−09
COc1c(C)cc2c(c1OC(=O)OC(C)(C)C)[C@@H]1C3[C@@H]4SC[C@]5(NCCc6c5[nH]c5ccccc65)C(=O)COC[C@@H](c5c6c(c(C)c(OC(C)=O)c54)OCO6)N3[C@@H](O)[C@H](C2)N1C (stereo partly shown) [Compound 46] | 2.02E−06
C=COC(=O)Oc1c(OC)c(C)cc2c1[C@@H]1C3[C@@H]4SC[C@]5(NCCc6c5[nH]c5ccccc65)C(=O)COC[C@@H](c5c6c(c(C)c(OC(C)=O)c54)OCO6)N3[C@@H](O)[C@H](C2)N1C (stereo partly shown) [Compound 47] | 2.11E−06
COc1c(C)cc2c(c1O)[C@@H]1C3[C@@H]4SC[C@]5(NC(C)Cc6c5[nH]c5ccccc65)C(=O)COC[C@@H](c5c6c(c(C)c(OC(C)=O)c54)OCO6)N3[C@@H](O)[C@H](C2)N1C (stereo partly shown) [Compound 44] | 9.38E−09

###

Tested on: IGROV
Assay: cells
Type: cell-based
Details: 48 hours exposure, SRB
# TGI per record follows
measurement_type: TGI (Molar)

compound | value
COc1c(C)cc2c(c1O)[C@@H]1C3[C@@H]4SC[C@]5(NC(C)Cc6c5[nH]c5ccc(O)cc65)C(=O)COC[C@@H](c5c6c(c(C)c(OC(C)=O)c54)OCO6)N3[C@@H](O)[C@H](C2)N1C (some centres unmarked) [Compound 38] | 2.89E−09
COc1c(C)cc2c(c1O)[C@@H]1C3[C@@H]4SC[C@]5(C(=O)COC[C@@H](c6c7c(c(C)c(OC(C)=O)c64)OCO7)N3[C@@H](O)[C@H](C2)N1C)c1[nH]c2ccccc2c1CCN5C (some centres unmarked) [Compound 40] | 4.17E−09
COc1c(C)cc2c(c1O)[C@@H]1C3[C@@H]4SC[C@]5(C(=O)COC[C@@H](c6c7c(c(C)c(OC(C)=O)c64)OCO7)N3[C@@H](O)[C@H](C2)N1C)c1[nH]c2ccccc2c1CCN5C (some centres unmarked) [Compound 39] | 8.15E−08
COc1c(C)cc2c(c1O)[C@@H]1C3[C@@H]4SC[C@]5(NC(C)Cc6c5[nH]c5ccc(F)cc65)C(=O)COC[C@@H](c5c6c(c(C)c(OC(C)=O)c54)OCO6)N3[C@@H](O)[C@H](C2)N1C (some centres unmarked) | 5.12E−09
COc1c(C)cc2c(c1O)[C@@H]1C3[C@@H]4SC[C@]5(NC(C)Cc6c5[nH]c5ccc(O)cc65)C(=O)COC[C@@H](c5c6c(c(C)c(OC(C)=O)c54)OCO6)N3[C@@H](O)[C@H](C2)N1C (some centres unmarked) [Compound 37] | 7.06E−09

###

Test system: DU145
Test: cells
Format: cell-based
Details: read-out: LC50; DU145, 48 hours exposure, SRB
One threshold, 10 µM, splits the recorded CC50 values: lower ones are met, equal or higher ones are not met.

compound | target_system | group
COc1c(C)cc2c(c1O)[C@@H]1C3[C@@H]4SC[C@]5(NC(C)Cc6c5[nH]c5ccc(O)cc65)C(=O)COC[C@@H](c5c6c(c(C)c(OC(C)=O)c54)OCO6)N3[C@@H](O)[C@H](C2)N1C (some centres unmarked) | DU145 | not met
COc1c(C)cc2c(c1O)[C@@H]1C3[C@@H]4SC[C@]5(C(=O)COC[C@@H](c6c7c(c(C)c(OC(C)=O)c64)OCO7)N3[C@@H](O)[C@H](C2)N1C)c1[nH]c2ccccc2c1CCN5C (some centres unmarked) [Compound 40] | DU145 | met
COc1c(C)cc2c(c1O)[C@@H]1C3[C@@H]4SC[C@]5(C(=O)COC[C@@H](c6c7c(c(C)c(OC(C)=O)c64)OCO7)N3[C@@H](O)[C@H](C2)N1C)c1[nH]c2ccccc2c1CCN5C (some centres unmarked) [Compound 39] | DU145 | not met
COc1c(C)cc2c(c1O)[C@@H]1C3[C@@H]4SC[C@]5(NC(C)Cc6c5[nH]c5ccc(F)cc65)C(=O)COC[C@@H](c5c6c(c(C)c(OC(C)=O)c54)OCO6)N3[C@@H](O)[C@H](C2)N1C (some centres unmarked) [Compound 42] | DU145 | met
